# Tested on: UO-31 renal
# Measurement notes: NCI tumour cell line growth inhibition, 48 h
Overview of recorded TGI for various molecules

{"columns": ["Molecule", "Units label", "Bound type", "TGI"],
 "data": [
  ["CC1=NN(C(=O)CC(=O)Nc2cccc(C)c2)C(=O)C1N=Nc1ccc(S(=O)(=O)CCOS(=O)(=O)O)cc1 (stereo not drawn)", "µM", "=", 10.5],
  ["CC(=O)Nc1ccc(C2CC(c3ccc([N+](=O)[O-])cc3)=Nc3ccccc3S2)cc1 (stereo not drawn)", "µM", "=", 27.8],
  ["C[s+]1c2ccccc2c2ccccc21", "µM", ">", 100],
  ["C/C(=N/NC(=S)Nc1ccccc1)c1nc2ccc(Cl)cc2[nH]1", "µM", "=", 0.795],
  ["CSc1nc(Nc2cccc(NC(=O)CCl)c2)c(C#N)c(-c2cccc([N+](=O)[O-])c2)n1", "µM", "=", 5.73],
  ["Cc1ccc(/C(=N/Nc2ccc([N+](=O)[O-])cc2)Sc2cc(Cl)c(C)cc2S(N)(=O)=O)cc1", "µM", "=", 10.7],
  ["O=C(Nc1sc2c(c1C(=O)O)CCCC2)c1ccco1", "µM", ">", 50],
  ["COc1cc(C)c2c(c1)CN1CN2Cc2cc(OC)cc(C)c21", "µM", "=", 85.5]
]}

====

Below, each entry is listed alongside its reported TGI.
# Test system: U251 CNS
# Measurement notes: NCI tumour cell line growth inhibition, 48 h

{"columns": ["Compound", "TGI"],
 "data": [
  ["CC(=O)[CH-]C(C)=O.CC(=O)[CH-]C(C)=O.[O-]c1ccccc1.[O-]c1ccccc1.[Ti+4]", "> 100 µM"],
  ["CC(=O)CC1(CBr)Nc2ccc([N+](=O)[O-])cc2NC1=O (stereo not drawn)", "> 100 µM"],
  ["CN1CCN(C2=NC(=O)/C(=C\\c3ccc(N(C)C)cc3)S2)CC1", "> 100 µM"]
]}

====

# System: U251 CNS
# Measurement notes: NCI tumour cell line growth inhibition, 48 h
Quick list: TGI per entry.

{"columns": ["Compound", "TGI"],
 "data": [
  ["COc1cc(C2CC(c3ccc(Nc4nc(NCCO)nc(NCCO)n4)cc3)=NN2c2cc(Cl)cc(Cl)c2)cc(OC)c1OC (configuration not stated)", "2.81 µM"],
  ["CC1(C)CC(C)(C)c2cc(NC(=S)Nc3ccc([N+](=O)[O-])cc3)ccc2S1", "29.4 µM"],
  ["O=CCCCCCOCc1ccccc1", "> 100 µM"],
  ["COc1cc2c(cc1C)NC(=O)/C2=C/c1ccnc2ccccc12", "35.9 µM"],
  ["CC(O)c1nc(C#N)c(N)o1 (configuration not stated)", "> 100 µM"],
  ["O=C(Nc1ccc(Cl)cc1C(F)(F)F)C(=O)Nn1c(=S)[nH]c2ccccc2c1=O", "> 100 µM"],
  ["O=[N+]([O-])c1ccc(-n2nc3ccc4nonc4c3n2)cc1", "> 100 µM"]
]}

====

A collection of compounds and their measured TGI
# Tested on: NCI-H23 lung
# Measurement notes: NCI tumour cell line growth inhibition, 48 h
Metric name: TGI (µM)

{"columns": ["Compound", "Metric name", "Units label", "Bound type", "Result number"],
 "data": [
  ["C[C@]12CC[C@H]3[C@@H](CC=C4C[C@@H](N5CCCC5)CC[C@@]43C)[C@@H]1C[C@H](N1CCCCC1)[C@@H]2O", "TGI", "µM", ">", 100],
  ["CC(=O)C(=Cc1cn(C)c(=O)n(C)c1=O)C(C)=O", "TGI", "µM", "=", 194],
  ["CCc1nc(N)c2nc(-c3cccs3)oc2n1", "TGI", "µM", ">", 100],
  ["CC1OC(OC2C(O[C@H]3CC[C@@]4(C)C(=CC[C@H]5[C@@H]6C[C@@H]7O[C@]8(CC[C@@H](C)CO8)[C@@H](C)[C@@H]7[C@@]6(C)CC[C@@H]54)C3)OC(CO)C(O)C2OC2OC(CO)C(O)C(O)C2O)C(O)C(O)C1O (stereo not given in full)", "TGI", "µM", "=", 3.44],
  ["O=C1c2ccccc2-c2nc3ccncc3n21", "TGI", "µM", ">", 100]
]}

From: PubChem BioAssay (NCI)
